Values were extracted from patent US10189809B2.

- Assay target: soluble guanylate cyclase (sGC) (Homo sapiens (Human), UniProt Q02108+Q02153)
- Sequence (Q02153 whole entry): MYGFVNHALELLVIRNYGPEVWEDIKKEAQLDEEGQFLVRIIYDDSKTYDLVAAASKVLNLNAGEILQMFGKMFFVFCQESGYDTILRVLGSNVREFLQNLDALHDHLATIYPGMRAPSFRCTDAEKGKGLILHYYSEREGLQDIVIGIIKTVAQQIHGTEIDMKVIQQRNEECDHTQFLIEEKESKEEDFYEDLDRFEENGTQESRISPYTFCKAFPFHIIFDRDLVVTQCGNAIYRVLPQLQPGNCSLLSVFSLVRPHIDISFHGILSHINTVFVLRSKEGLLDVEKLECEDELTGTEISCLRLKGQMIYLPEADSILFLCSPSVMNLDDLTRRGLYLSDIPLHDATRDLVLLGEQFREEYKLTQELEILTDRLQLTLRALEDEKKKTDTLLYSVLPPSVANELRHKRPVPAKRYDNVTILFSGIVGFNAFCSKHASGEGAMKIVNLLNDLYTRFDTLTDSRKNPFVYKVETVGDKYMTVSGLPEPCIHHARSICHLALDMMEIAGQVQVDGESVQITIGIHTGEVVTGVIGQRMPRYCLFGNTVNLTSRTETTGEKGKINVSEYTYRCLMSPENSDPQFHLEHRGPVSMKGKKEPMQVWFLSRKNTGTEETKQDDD
- Sequence (Q02108 whole entry): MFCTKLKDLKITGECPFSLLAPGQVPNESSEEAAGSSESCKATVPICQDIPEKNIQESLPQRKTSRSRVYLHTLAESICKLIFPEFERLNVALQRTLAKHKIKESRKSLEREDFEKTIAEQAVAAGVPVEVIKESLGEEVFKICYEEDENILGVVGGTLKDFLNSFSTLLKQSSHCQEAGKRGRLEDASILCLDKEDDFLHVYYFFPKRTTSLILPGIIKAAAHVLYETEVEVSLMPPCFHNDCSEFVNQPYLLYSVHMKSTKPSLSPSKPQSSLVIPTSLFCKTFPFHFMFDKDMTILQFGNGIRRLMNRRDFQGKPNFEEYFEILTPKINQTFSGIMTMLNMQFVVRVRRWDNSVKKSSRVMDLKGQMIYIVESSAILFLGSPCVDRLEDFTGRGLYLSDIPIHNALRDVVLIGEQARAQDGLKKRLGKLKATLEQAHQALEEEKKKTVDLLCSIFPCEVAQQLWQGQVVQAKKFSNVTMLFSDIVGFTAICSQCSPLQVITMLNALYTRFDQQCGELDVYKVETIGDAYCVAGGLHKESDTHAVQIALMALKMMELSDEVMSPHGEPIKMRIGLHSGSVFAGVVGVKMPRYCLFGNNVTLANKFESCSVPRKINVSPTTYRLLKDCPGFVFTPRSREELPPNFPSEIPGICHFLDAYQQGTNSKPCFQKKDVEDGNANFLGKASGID
- Method notes: sGC-HEK-cGMP assay run with SNP incubation (HEK WC assay)
- Type: cell-based
- Setup conditions: read-out: HEK WC Assay (% Emax at 10 μM with 10 uM SNP)
Quantity kind: Emax

Which measured Emax value corresponds to CN(C)C(=O)Oc1cnc(-c2cc(-c3ccon3)n(Cc3ccccc3F)n2)nc1 ?
60 to 80%

So what does the record say about Emax for Nc1nc(-c2cc(-c3ccon3)n(Cc3ccccc3F)n2)ncc1NC(=O)/C=C/c1ccccc1 ?
60 to 80%

May I ask what Emax has been recorded for N#Cc1cc(-c2ncccn2)nn1Cc1ccccc1F ?
20 to 40%

Name the recorded Emax for N#CC1(C(=O)Nc2cnc(-c3cc(-c4ccon4)n(Cc4ccccc4F)n3)nc2N)CC1 .
100 to 120%

* * *

- Assay target: Human soluble guanylate cyclase enzyme (hsGC) (Homo sapiens (Human), UniProt Q02108+Q02153)
- Sequence (Q02153 whole entry): as the sequence (Q02153 whole entry) above
- Sequence (Q02108 whole entry): as the sequence (Q02108 whole entry) above
- Method notes: Purified human sGC enzyme activity assay
- Type: biochemical
- Setup conditions: 10 μM compound
Quantity kind: sGC Enzyme (specific activity at 10 μM)

Cc1ccc(-c2c(Br)c(-c3ccccn3)nn2Cc2ccccc2F)cc1 | C (C = 100 to <200)
Fc1ccccc1Cn1nc(-c2ncccn2)cc1-c1cnc2ccoc2c1 | C (C = 100 to <200)
Fc1ccccc1Cn1nc(-c2ccccn2)cc1-c1cnccn1 | B (B = 50 to <100)
Fc1ccccc1Cn1nc(-c2ncccn2)cc1-c1ncccn1 | B (B = 50 to <100)

* * *

Field: Emax. Provide a value for each of the compounds that follow.
- Assay target: soluble guanylate cyclase (sGC) (Homo sapiens (Human), UniProt Q02108+Q02153)
- Method notes: sGC-HEK-cGMP assay run with SNP incubation (HEK WC assay)
- Format: cell-based
- Setup conditions: read-out: HEK WC Assay (% Emax at 1 μM with 10 uM SNP)

Please give the measured Emax for this compound: Nc1nc(-c2cc(-c3ccon3)n(Cc3ccccc3F)n2)ncc1NC(=O)[C@@H]1CCCN1C(=O)C(F)(F)F [Compound I-219]
20 to 40%

Data request, read-out Emax, for Nc1nc(-c2cc(-c3ccon3)n(Cc3ccccc3F)n2)ncc1NC(=O)c1cocn1 [Compound I-180]
40 to 60%

Using the record for Cc1ccc(C(=O)Nc2cnc(-c3cc(-c4ccon4)n(Cc4ccccc4F)n3)nc2N)cc1 [Compound I-181] , report its Emax.
60 to 80%

Data request, read-out Emax, for Clc1ccccc1Cn1nc(-c2ncccn2)cc1-c1ccon1 [Compound I-200]
0 to 10%

Using the record for Nc1nc(-c2cc(-c3ccon3)n(Cc3ccccc3F)n2)ncc1NC(=O)c1ccncc1 [Compound I-176] , report its Emax.
20 to 40%

For COc1cccc(C(=O)Nc2cnc(-c3cc(-c4ccon4)n(Cc4ccccc4F)n3)nc2N)c1 [Compound I-174] , what is its reported Emax?
60 to 80%

Name the reported Emax value associated with the compound CC(C)(O)C(=O)Nc1cnc(-c2cc(-c3ccon3)n(Cc3ccccc3F)n2)nc1N [Compound I-209]
10 to 20%

Reported Emax, compound O=S(=O)(c1ccccc1)c1cnc(-c2cc(-c3ncco3)n(Cc3ccccc3F)n2)nc1O [Compound I-271] : ____
40 to 60%

I am curious: what Emax value has been reported for Cc1ccccc1C(=O)Nc1cnc(-c2cc(-c3ccon3)n(Cc3ccccc3F)n2)nc1N [Compound I-184] ?
60 to 80%

Which Emax value is on record for Nc1nc(-c2cc(-c3ccon3)n(Cc3ccccc3F)n2)ncc1NC(=O)CN1C(=O)c2ccccc2C1=O [Compound I-212] ?
60 to 80%

Which Emax value is on record for Nc1nc(-c2cc(-c3ccon3)n(Cc3ccccc3F)n2)ncc1NC(=O)c1ccon1 [Compound I-175] ?
60 to 80%

Need Emax, item O=[N+]([O-])c1cnc(-c2cc(-c3ccon3)n(Cc3ccccc3F)n2)nc1O [Compound I-170]
0 to 10%

Return reported Emax; argument: Nc1nc(-c2cc(-c3ccon3)n(Cc3ccccc3F)n2)ncc1NC(=O)c1cccc(F)c1 [Compound I-171]
60 to 80%

I would be grateful if you could share the reported Emax for Nc1nc(-c2cc(-c3ccon3)n(Cc3ccccc3F)n2)ncc1NC(=O)c1cnco1 [Compound I-188] .
40 to 60%

Entry CC1(C(=O)Nc2cnc(-c3cc(-c4ccon4)n(Cc4ccccc4F)n3)nc2N)CC1 [Compound I-206] has what Emax?
100 to 120%

Look at this compound and give its reported Emax. O=S(=O)(c1cnc(-c2cc(-c3ccon3)n(Cc3ccccc3F)n2)nc1O)N1CCOCC1 [Compound I-224]
20 to 40%

* * *

- Assay target: soluble guanylate cyclase (sGC) (Homo sapiens (Human), UniProt Q02108+Q02153)
- Method notes: sGC-HEK-cGMP assay run with SNP incubation (HEK WC assay)
- Assay type: cell-based
- Setup conditions: read-out: HEK WC Assay (% Emax at 10 uM/with 10 uM SNP)
I'd be grateful if you could share measured Emax at 10 µM for these entries.

Find the measured Emax at 10 µM: item N#Cc1c(-c2ccccn2)nn(Cc2ccccc2F)c1-c1ccccn1 [Compound I-54] , target or system soluble guanylate cyclase (sGC) (Homo sapiens (Human), UniProt Q02108+Q02153).
0 to 10%

Entry Cc1ccc(-c2c(Br)c(-c3ccccn3)nn2Cc2ccccc2F)cc1 [Compound I-67] , system soluble guanylate cyclase (sGC) (Homo sapiens (Human), UniProt Q02108+Q02153): what Emax at 10 µM was measured?
0 to 10%

Can you look up Emax at 10 µM on soluble guanylate cyclase (sGC) (Homo sapiens (Human), UniProt Q02108+Q02153) for Fc1ccccc1Cn1nc(-c2ncccn2)cc1-c1nccs1 [Compound I-33] ?
20 to 40%

Which measured Emax at 10 µM belongs to Nc1ccnc(-c2cc(-c3ccsc3)n(Cc3ccccc3F)n2)n1 [Compound I-49] , tested on soluble guanylate cyclase (sGC) (Homo sapiens (Human), UniProt Q02108+Q02153)?
20 to 40%

Given the entry Fc1ccccc1Cn1nc(-c2ccccn2)cc1-c1nnco1 [Compound I-45] , what Emax at 10 µM was observed with soluble guanylate cyclase (sGC) (Homo sapiens (Human), UniProt Q02108+Q02153)?
20 to 40%

Request: Emax at 10 µM, test system soluble guanylate cyclase (sGC) (Homo sapiens (Human), UniProt Q02108+Q02153), entry CC(C)c1cc(-c2ccccn2)nn1Cc1ccccc1F [Compound I-47]
0 to 10%

Could you share what Emax at 10 µM was measured for COc1ccc(-c2cc(-c3ccccn3)nn2Cc2ccccc2F)cc1 [Compound I-40] , tested on soluble guanylate cyclase (sGC) (Homo sapiens (Human), UniProt Q02108+Q02153)?
0 to 10%

So what Emax at 10 µM did Fc1ccccc1Cn1nc(-c2ccccn2)cc1C1CCCCC1 [Compound I-48] get with soluble guanylate cyclase (sGC) (Homo sapiens (Human), UniProt Q02108+Q02153)?
0 to 10%

Lab note: need Emax at 10 µM with soluble guanylate cyclase (sGC) (Homo sapiens (Human), UniProt Q02108+Q02153) for entry Fc1ccccc1Cn1nc(-c2ncccn2)cc1-c1ncccn1 [Compound I-13] , please look it up.
0 to 10%

* * *

- Assay target: soluble guanylate cyclase (sGC) (Homo sapiens (Human), UniProt Q02108+Q02153)
- Method notes: sGC-HEK-cGMP assay run with SNP incubation (HEK WC assay)
- Assay type: cell-based
- Setup conditions: read-out: HEK WC Assay (% Emax at 10 μM with 10 uM SNP)
Quantity kind: Emax

# Emax lookup, item CCC(C)(C)C(=O)Nc1cnc(-c2cc(-c3ccon3)n(Cc3ccccc3F)n2)nc1N
60 to 80%

Which Emax is listed for Fc1ccccc1Cn1nc(-c2ccccn2)cc1-c1cccc(Br)n1 ?
0 to 10%

Look up Emax for this molecule: Nc1nc(-c2cc(-c3ccon3)n(Cc3ccccc3F)n2)ncc1NC(=O)C1(c2ccccc2)CCC1
40 to 60%

Entry Fc1ccccc1Cn1nc(-c2ncccn2)cc1-c1ccon1 : reported Emax = ?
60 to 80%

So what's the measured Emax for this one? Nc1ccnc(-c2cc(-c3ccco3)n(Cc3ccccc3F)n2)n1
60 to 80%

Need Emax of CC(C)(C)NC(=O)c1cnc(-c2cc(-c3ccon3)n(Cc3ccccc3F)n2)nc1N , thanks.
60 to 80%

Request the reported Emax associated with O=S(=O)(c1ccccc1)c1cnc(-c2cc(-c3ccon3)n(Cc3ccccc3F)n2)nc1O
100 to 120%

Reported Emax, molecule CC(C)(C)CC(=O)Nc1cnc(-c2cc(-c3ccon3)n(Cc3ccccc3F)n2)nc1N : ____
100 to 120%

Query: Emax; subject: CC(C)=CC(=O)Nc1cnc(-c2cc(-c3ccon3)n(Cc3ccccc3F)n2)nc1N
60 to 80%

Fill in: Emax of CNc1cnc(-c2cc(-c3ccon3)n(Cc3ccccc3F)n2)nc1N is ___
40 to 60%

Find the recorded Emax belonging to Nc1nc(-c2cc(-c3ccon3)n(Cc3ccccc3F)n2)ncc1NCc1ccccc1 and report it.
10 to 20%

What does the record list as Emax for Fc1ccccc1Cn1nc(-c2ccccn2)cc1-c1cncs1 ?
0 to 10%

I'd like to know its Emax. The molecule in question is Oc1nc(-c2cc(-c3ccon3)n(Cc3ccccc3F)n2)ncc1-c1ccncc1
40 to 60%

Fill in: Emax of Nc1nc(-c2cc(-c3ccon3)n(Cc3ccccc3F)n2)ncc1NC(=O)c1ccccc1OC(F)(F)F is ___
20 to 40%

Given the molecule Fc1ccccc1Cn1nc(-c2ccccn2)cc1-c1ncon1 , what is its reported Emax?
20 to 40%

Would you mind telling me what Emax value was observed for Fc1cccc(F)c1Cn1nc(-c2ncccn2)cc1-c1ccon1 ?
20 to 40%

Would you mind telling me what Emax value was observed for COc1cccc(C(=O)Nc2cnc(-c3cc(-c4ccon4)n(Cc4ccccc4F)n3)nc2N)c1 ?
80 to 100%

Which Emax value belongs to CO[C@@](C(=O)Nc1cnc(-c2cc(-c3ccon3)n(Cc3ccccc3F)n2)nc1N)(c1ccccc1)C(F)(F)F ?
40 to 60%

Need Emax, item CC(=O)Nc1cnc(-c2cc(-c3ncco3)n(Cc3ccccc3F)n2)nc1N
60 to 80%

I would be grateful if you could share the reported Emax for Nc1nc(-c2cc(-c3ncco3)n(Cc3ccccc3F)n2)ncc1F .
80 to 100%

Which Emax value belongs to Fc1ccccc1Cn1nc(-c2ccccn2)cc1-c1cnco1 ?
20 to 40%

So what does the record say about Emax for Nc1nc(-c2cc(-c3ccon3)n(Cc3ccccc3F)n2)ncc1NC(=O)C1CCCCC1 ?
100 to 120%

What does the data say about its Emax? Entry: Nc1nc(-c2cc(-c3ccon3)n(Cc3ccccc3F)n2)ncc1NC(=O)c1nccs1
60 to 80%

Consider the molecule shown here: Nc1nc(-c2cc(-c3ccon3)n(Cc3ccccc3F)n2)ncc1N=C(c1ccccc1)c1ccccc1 What is its recorded Emax?
10 to 20%

I would be grateful if you could share the reported Emax for Fc1ccccc1Cn1nc(-c2ccccn2)cc1-n1cccn1 .
0 to 10%

What does the data say about its Emax? Entry: Nc1nc(-c2cc(-c3ccon3)n(Cc3ccccc3F)n2)ncc1NC(=O)c1ccc(F)cc1
100 to 120%

What value of Emax has been recorded for this entry: O=C(Nc1cnc(-c2cc(-c3ncco3)n(Cc3ccccc3F)n2)nc1O)c1ccccc1
20 to 40%

Suppose we examine the molecule Fc1cccc(Cn2nc(-c3ncccn3)cc2-c2ccon2)c1 ; what Emax value has been reported?
40 to 60%

Entry CC(C)(O)C(=O)Nc1cnc(-c2cc(-c3ccon3)n(Cc3ccccc3F)n2)nc1N : reported Emax = ?
20 to 40%

Given the entry CC1(C(=O)Nc2cnc(-c3cc(-c4ccon4)n(Cc4ccccc4F)n3)nc2N)CCCCC1 , report its measured Emax.
80 to 100%

Item under review: CC(C)C(=O)Nc1cnc(-c2cc(-c3ccon3)n(Cc3ccccc3F)n2)nc1N . Reported Emax?
80 to 100%

Emax for O=S(=O)(c1cc(Cl)ccc1Cl)c1cnc(-c2cc(-c3ccon3)n(Cc3ccccc3F)n2)nc1O ?
20 to 40%

Query (molecule): Oc1nc(-c2cc(-c3ccon3)n(Cc3ccccc3F)n2)ncc1Br ; field requested: Emax
40 to 60%
